Exercise: state measured logD for each of the compounds provided.
# TEST METHOD NOTES: method code SF, from DOI: 10.1016/0360-3016(89)90899-7, PMID: 2703405
# RECORDED CONDITIONS: pH 7.4
Output spec: single numeric token, no unit.

Fill in: logD of `[O-][n+]1cn[n+]([O-])c2ccccc21` is ___ -0.8

Fill in: logD of Nc1n[n+]([O-])c2cc(OCC(O)CO)ccc2[n+]1[O-] (stereo not given) is ___ -1.1

Fill in: logD of `CC(=O)CC(=O)Nc1n[n+]([O-])c2ccccc2[n+]1[O-]` is ___ -1.4

Fill in: logD of `Nc1n[n+]([O-])c2ccccc2[n+]1[O-]` is ___ -0.3

Fill in: logD of `CC(=O)Nc1n[n+]([O-])c2ccccc2[n+]1[O-]` is ___ -0.6
